system: Rattus norvegicus; assay: Antiinflammatory activity in po dosed rat assessed as inhibition of carrageenin-induced paw edema; format: functional
property.measured: ED30

Given the entry CCC1(CC(=O)O)OCCc2c1[nH]c1c(C)c(Cl)ccc21 (centres undefined) , report its measured ED30.
15 mg/kg

Queued: CCCc1cccc2c3c([nH]c12)C(CC)(CC(=O)O)OCC3 (centres undefined)
10 mg/kg

Queued: CCC1(CC(=O)O)OCCc2c1[nH]c1c(C)c(F)ccc21 (centres undefined)
37 mg/kg

Queued: COc1ccc2c(c1)c(CC(=O)O)c(C)n2C(=O)c1ccc(Cl)cc1 [INDOMETHACIN]
1.3 mg/kg
